biological target: Muscarinic acetylcholine receptor M4 (Homo sapiens) (UniProt P08173); experiment: compounds altering M4/GIRK thallium flux, either direction, primary screen, M4 allosteric agonist project, cell-based, HEK293 M4/GIRK, BTC-AM (AID 625); conditions: at 10 µM, actives lie on both sides;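 also: thallium influx through GIRK channels coupled to M4 in HEK293 cells with BTC-AM dye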
Sequence (P08173 whole entry, looked up): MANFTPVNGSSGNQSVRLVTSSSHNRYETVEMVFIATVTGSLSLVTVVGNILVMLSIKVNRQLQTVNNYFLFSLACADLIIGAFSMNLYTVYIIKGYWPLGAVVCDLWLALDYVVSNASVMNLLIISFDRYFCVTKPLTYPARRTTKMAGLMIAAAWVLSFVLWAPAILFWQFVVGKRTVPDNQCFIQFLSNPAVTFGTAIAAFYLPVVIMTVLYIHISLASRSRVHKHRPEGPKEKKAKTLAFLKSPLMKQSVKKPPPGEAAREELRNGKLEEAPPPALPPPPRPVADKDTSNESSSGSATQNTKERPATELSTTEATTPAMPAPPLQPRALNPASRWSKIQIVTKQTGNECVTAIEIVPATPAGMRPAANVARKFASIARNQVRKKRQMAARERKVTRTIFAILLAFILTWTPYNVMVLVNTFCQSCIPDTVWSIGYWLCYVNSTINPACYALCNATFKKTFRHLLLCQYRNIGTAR
Consider the following compounds; for each one, report its fluorescence slope.
Give bare numbers.

Worked set:
{"COMPOUND": "COC(=O)C(NC(=O)c1ccco1)(Nc1nc(C)cs1)C(F)(F)F (stereo not drawn)", "fluorescence slope": 0.00502}
{"COMPOUND": "CCC(=O)Nc1ccc(-c2nnc(SCC(=O)NCC3CCCO3)n2C)cc1 (stereo not drawn)", "fluorescence slope": 0.0052}

**Q:** Request - read-out fluorescence slope | tested on Muscarinic acetylcholine receptor M4 (Homo sapiens) (UniProt P08173) | compound CN(C)c1cccc2c(S(=O)(=O)N3CCOCC3)cccc12
**A:** 0.00799

---

assay: inhibitors of mutant huntingtin aggregation, primary screen, imaging, exon1htt(103Q)mCFP cells, high-content imaging (AID 483); conditions: exon1htt(103Q)mCFP cell line, aggregate imaging, at 2 µM; active compounds read high;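 also: compound exposure lasted 3 days before fixation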
Activity calls are given as the source filed them.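 The calls were made as follows: active = visual image review flags a hit and inhibition of aggregation exceeds 20%; inconclusive = visual hit but inhibition at or below 20%; inactive = no hit on visual image review.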
RECORDED_ENDPOINT: inhibition of aggregation

The cases that follow already have their inhibition of aggregation on record.
{"COMPOUND": "COCc1nnc(NC(=O)CCCOc2ccccc2)s1", "inhibition of aggregation": "-7.8% (inactive)"}
{"COMPOUND": "CC1CCCCC1NC(=O)c1nn(C)c(=O)c2ccccc12 (centres undefined)", "inhibition of aggregation": "0.4% (inactive)"}
{"COMPOUND": "CCN(CC)C(=O)C1CCCN(Cc2ccc(N(C)C)cc2)C1 (centres undefined)", "inhibition of aggregation": "-25.6% (inactive)"}

**Q:** Look up inhibition of aggregation: CCCOc1ccc(NC2=CC(=O)CC(C)(C)C2)cc1
**A:** -7.1% (inactive)

---

experiment: inhibitors of poly I:C-induced TLR3 signaling, primary screen, cell-based, poly I:C stimulus, luciferase, 10K MLSCN set (AID 602277); conditions: HEK293-TLR3 RL24 IRF3 luciferase reporter, at 10 µM, active compounds read high
Quick rule for you: inhibition at 20% or higher means 1, lower means -1.

{"MOLECULE": "CCOCC(=O)Nc1sc2c(c1C(=O)OCC)CCCC2", "CLASS_ASSIGNMENT": -1}
{"MOLECULE": "COc1cccc(C(c2nnnn2CCc2ccccc2)N2CCN(c3ccccc3)CC2)c1OC (stereo not given)", "CLASS_ASSIGNMENT": -1}

**Q:** Quick check, inhibition >= 20%? CCc1ccccc1NC(=O)CSc1ncn[nH]1
**A:** 1

**Q:** I'd appreciate it if you could say whether O=S(=O)(Nc1nc2ccccc2nc1NCc1ccco1)c1cccs1 has inhibition at least equal to 20%.
**A:** -1

**Q:** Can CCCCNC(=O)c1nnn(-c2ccccc2)c1N be said to have inhibition at or above 20%?
**A:** -1

**Q:** Threshold query (inhibition >= 20%) on CCOC(=O)c1ccccc1NC(=O)c1cc2sccc2n1C
**A:** -1

**Q:** Check if inhibition >= 20% (inclusive). Item: Cc1cccc2cc(C#N)c(SCCN3CCCCC3)nc12
**A:** 1

**Q:** Is inhibition at least 20%? Consider CN(C)CCN1C(=O)C(O)=C(C(=O)c2cc3ccccc3o2)C1c1ccc(N(C)C)cc1 (stereo not given)
**A:** 1
